The measurements presented in this section are drawn from BigSolDB 2.1.

Settings: in methyl acetate, 323.15 K

structureNotation	solubility (mole fraction)
N#Cc1ccc2c(c1)OCO2	0.353

* * *

Conditions: in 1,4-dioxane, 308.15 K
recordedMetric: solubility (mole fraction)

structureNotation	recordedMetric	result
N#Cc1ccc2c(c1)OCO2	solubility (mole fraction)	0.283

* * *

Conditions: in acetonitrile, 308.15 K

structureNotation	solubility (mole fraction)
N#Cc1ccc2c(c1)OCO2	0.203

* * *

Conditions: in 1,4-dioxane, 303.15 K

structureNotation	solubility (mole fraction)
N#Cc1ccc2c(c1)OCO2	0.256

* * *

Settings: in methyl acetate, 298.15 K
recordedMetric: solubility (mole fraction)

structureNotation	recordedMetric	numericReadout
N#Cc1ccc2c(c1)OCO2	solubility (mole fraction)	0.184

* * *

Conditions: in DMF, 323.15 K

structureNotation	solubility (mole fraction)
N#Cc1ccc2c(c1)OCO2	0.433

* * *

Conditions: in acetone, 293.15 K

structureNotation	solubility (mole fraction)
N#Cc1ccc2c(c1)OCO2	0.158

* * *

Conditions: in ethyl acetate, 318.15 K
recordedMetric: solubility (mole fraction)

structureNotation	numericReadout
N#Cc1ccc2c(c1)OCO2	0.282

* * *

Conditions: in methyl acetate, 313.15 K
recordedMetric: solubility (mole fraction)

structureNotation	numericReadout
N#Cc1ccc2c(c1)OCO2	0.274

* * *

Conditions: in 2-methoxyethanol, 293.15 K

structureNotation	solubility (mole fraction)
N#Cc1ccc2c(c1)OCO2	0.0849

* * *

Details: in ethanol, 278.15 K

structureNotation	solubility (mole fraction)
N#Cc1ccc2c(c1)OCO2	0.00686

* * *

Details: in ethanol, 288.15 K
recordedMetric: solubility (mole fraction)

structureNotation	numericReadout
N#Cc1ccc2c(c1)OCO2	0.0111

* * *

Details: in ethanol, 323.15 K

structureNotation	solubility (mole fraction)
N#Cc1ccc2c(c1)OCO2	0.0548

* * *

Details: in n-propyl acetate, 278.15 K

structureNotation	solubility (mole fraction)
N#Cc1ccc2c(c1)OCO2	0.0785

* * *

Settings: in acetone, 288.15 K
recordedMetric: solubility (mole fraction)

structureNotation	numericReadout
N#Cc1ccc2c(c1)OCO2	0.136

* * *

Conditions: in methanol, 283.15 K
recordedMetric: solubility (mole fraction)

structureNotation	numericReadout
N#Cc1ccc2c(c1)OCO2	0.0104

* * *

Conditions: in ethyl acetate, 323.15 K

structureNotation	solubility (mole fraction)
N#Cc1ccc2c(c1)OCO2	0.322

* * *

Details: in isopropanol, 293.15 K
recordedMetric: solubility (mole fraction)

structureNotation	recordedMetric	numericReadout
N#Cc1ccc2c(c1)OCO2	solubility (mole fraction)	0.00933

* * *

Conditions: in ethanol, 293.15 K

structureNotation	solubility (mole fraction)
N#Cc1ccc2c(c1)OCO2	0.0133

* * *

Conditions: in n-propanol, 303.15 K

structureNotation	solubility (mole fraction)
N#Cc1ccc2c(c1)OCO2	0.02

* * *

Settings: in isopropyl acetate, 313.15 K

structureNotation	solubility (mole fraction)
N#Cc1ccc2c(c1)OCO2	0.211

* * *

Conditions: in n-propanol, 323.15 K

structureNotation	solubility (mole fraction)
N#Cc1ccc2c(c1)OCO2	0.0573

* * *

Details: in ethanol, 283.15 K
recordedMetric: solubility (mole fraction)

structureNotation	recordedMetric	numericReadout
N#Cc1ccc2c(c1)OCO2	solubility (mole fraction)	0.00878

* * *

Settings: in isopropanol, 313.15 K

structureNotation	solubility (mole fraction)
N#Cc1ccc2c(c1)OCO2	0.0268

* * *

Conditions: in acetone, 308.15 K

structureNotation	solubility (mole fraction)
N#Cc1ccc2c(c1)OCO2	0.237

* * *

Conditions: in methyl acetate, 293.15 K
recordedMetric: solubility (mole fraction)

structureNotation	numericReadout
N#Cc1ccc2c(c1)OCO2	0.16

* * *

Details: in isopropanol, 323.15 K
recordedMetric: solubility (mole fraction)

structureNotation	numericReadout
N#Cc1ccc2c(c1)OCO2	0.0445

* * *

Settings: in DMF, 313.15 K

structureNotation	solubility (mole fraction)
N#Cc1ccc2c(c1)OCO2	0.36

* * *

Details: in acetonitrile, 318.15 K

structureNotation	solubility (mole fraction)
N#Cc1ccc2c(c1)OCO2	0.283

* * *

Conditions: in ethanol, 318.15 K
recordedMetric: solubility (mole fraction)

structureNotation	result
N#Cc1ccc2c(c1)OCO2	0.0435

* * *

Conditions: in methyl acetate, 288.15 K

structureNotation	solubility (mole fraction)
N#Cc1ccc2c(c1)OCO2	0.137

* * *

Details: in isopropanol, 318.15 K

structureNotation	solubility (mole fraction)
N#Cc1ccc2c(c1)OCO2	0.0338

* * *

Settings: in isopropyl acetate, 278.15 K

structureNotation	solubility (mole fraction)
N#Cc1ccc2c(c1)OCO2	0.0657

* * *

Details: in 1,4-dioxane, 313.15 K

structureNotation	solubility (mole fraction)
N#Cc1ccc2c(c1)OCO2	0.325

* * *

Settings: in acetone, 318.15 K
recordedMetric: solubility (mole fraction)

structureNotation	numericReadout
N#Cc1ccc2c(c1)OCO2	0.307

* * *

Details: in methyl acetate, 303.15 K
recordedMetric: solubility (mole fraction)

structureNotation	recordedMetric	numericReadout
N#Cc1ccc2c(c1)OCO2	solubility (mole fraction)	0.21

* * *

Details: in 2-methoxyethanol, 298.15 K
recordedMetric: solubility (mole fraction)

structureNotation	numericReadout
N#Cc1ccc2c(c1)OCO2	0.101

* * *

Settings: in isopropanol, 278.15 K
recordedMetric: solubility (mole fraction)

structureNotation	recordedMetric	numericReadout
N#Cc1ccc2c(c1)OCO2	solubility (mole fraction)	0.00473

* * *

Conditions: in n-propanol, 293.15 K

structureNotation	solubility (mole fraction)
N#Cc1ccc2c(c1)OCO2	0.0122

* * *

Settings: in acetonitrile, 283.15 K

structureNotation	solubility (mole fraction)
N#Cc1ccc2c(c1)OCO2	0.0811

* * *

Settings: in acetonitrile, 293.15 K
recordedMetric: solubility (mole fraction)

structureNotation	numericReadout
N#Cc1ccc2c(c1)OCO2	0.12

* * *

Details: in n-propyl acetate, 283.15 K
recordedMetric: solubility (mole fraction)

structureNotation	numericReadout
N#Cc1ccc2c(c1)OCO2	0.0928

* * *

Conditions: in isopropyl acetate, 298.15 K

structureNotation	solubility (mole fraction)
N#Cc1ccc2c(c1)OCO2	0.13

* * *

Conditions: in ethanol, 308.15 K

structureNotation	solubility (mole fraction)
N#Cc1ccc2c(c1)OCO2	0.0266

* * *

Settings: in n-propyl acetate, 303.15 K

structureNotation	solubility (mole fraction)
N#Cc1ccc2c(c1)OCO2	0.176

* * *

Conditions: in 2-methoxyethanol, 308.15 K

structureNotation	solubility (mole fraction)
N#Cc1ccc2c(c1)OCO2	0.137

* * *

Conditions: in acetonitrile, 323.15 K

structureNotation	solubility (mole fraction)
N#Cc1ccc2c(c1)OCO2	0.33

* * *

Details: in 2-methoxyethanol, 313.15 K
recordedMetric: solubility (mole fraction)

structureNotation	numericReadout
N#Cc1ccc2c(c1)OCO2	0.16

* * *

Conditions: in acetonitrile, 288.15 K

structureNotation	solubility (mole fraction)
N#Cc1ccc2c(c1)OCO2	0.0999

* * *

Conditions: in 1,4-dioxane, 293.15 K

structureNotation	solubility (mole fraction)
N#Cc1ccc2c(c1)OCO2	0.197

* * *

Details: in DMF, 293.15 K

structureNotation	solubility (mole fraction)
N#Cc1ccc2c(c1)OCO2	0.239

* * *

Conditions: in isopropanol, 308.15 K

structureNotation	solubility (mole fraction)
N#Cc1ccc2c(c1)OCO2	0.0202

* * *

Details: in DMF, 283.15 K

structureNotation	solubility (mole fraction)
N#Cc1ccc2c(c1)OCO2	0.193

* * *

Details: in DMF, 308.15 K
recordedMetric: solubility (mole fraction)

structureNotation	recordedMetric	result
N#Cc1ccc2c(c1)OCO2	solubility (mole fraction)	0.32

* * *

Conditions: in ethyl acetate, 283.15 K

structureNotation	solubility (mole fraction)
N#Cc1ccc2c(c1)OCO2	0.102

* * *

Settings: in ethyl acetate, 293.15 K
recordedMetric: solubility (mole fraction)

structureNotation	numericReadout
N#Cc1ccc2c(c1)OCO2	0.14

* * *

Settings: in methanol, 278.15 K
recordedMetric: solubility (mole fraction)

structureNotation	result
N#Cc1ccc2c(c1)OCO2	0.00823

* * *

Conditions: in 1,4-dioxane, 298.15 K

structureNotation	solubility (mole fraction)
N#Cc1ccc2c(c1)OCO2	0.221

* * *

Details: in methanol, 308.15 K
recordedMetric: solubility (mole fraction)

structureNotation	numericReadout
N#Cc1ccc2c(c1)OCO2	0.031

* * *

Conditions: in acetonitrile, 303.15 K

structureNotation	solubility (mole fraction)
N#Cc1ccc2c(c1)OCO2	0.173

* * *

Details: in 1,4-dioxane, 288.15 K

structureNotation	solubility (mole fraction)
N#Cc1ccc2c(c1)OCO2	0.174

* * *

Conditions: in ethanol, 303.15 K
recordedMetric: solubility (mole fraction)

structureNotation	numericReadout
N#Cc1ccc2c(c1)OCO2	0.0214

* * *

Conditions: in n-propanol, 283.15 K

structureNotation	solubility (mole fraction)
N#Cc1ccc2c(c1)OCO2	0.00758

* * *

Settings: in 2-methoxyethanol, 283.15 K

structureNotation	solubility (mole fraction)
N#Cc1ccc2c(c1)OCO2	0.0606

* * *

Conditions: in acetone, 323.15 K

structureNotation	solubility (mole fraction)
N#Cc1ccc2c(c1)OCO2	0.349
